target: HLA-A*31:01; experiment: IEDB peptide-MHC binding, purified MHC/competitive/radioactivity; filed as Kd, often an IC50 or EC50 that approximates it; bounds were set here for any values at or beyond the usual limits of such assays; settings: source organism: Mammarenavirus machupoense
READOUT: pKd
Answers are plain numbers, as −log10 of the molar value.

The value of pKd measured for the sequence `EWMLIAAKMK` turned out to be 5.90

---

molecular target: HLA-A*03:01; assay: IEDB peptide-MHC binding, purified MHC/direct/fluorescence; filed as Kd, often an IC50 or EC50 that approximates it; bounds were set here for any values at or beyond the usual limits of such assays; settings: source organism: Campylobacter jejuni
pKd: −log10 of the molar value.
READOUT: pKd

The value of pKd measured for the sequence `SFWFFHPPY` turned out to be ≤ 4.70

---

target: HLA-B*08:01; test: IEDB peptide-MHC binding, purified MHC/competitive/fluorescence; bounds were set here for any values at or beyond the usual limits of such assays; conditions: source organism: Vaccinia virus Copenhagen
READOUT: IC50

The value of IC50 measured for the sequence `TFALKKLII` turned out to be ≥ 132 µM

---

biological target: HLA-B*18:01; assay: IEDB peptide-MHC binding, purified MHC/competitive/fluorescence; filed as Kd, often an IC50 or EC50 that approximates it; bounds were set here for any values at or beyond the usual limits of such assays; settings: source organism: Homo sapiens
READOUT: Kd

Record for `VTSSVSSGY` under target or system HLA-B*18:01: Kd reported as ≥ 20 µM

---

target: HLA-A*26:01; test: IEDB peptide-MHC binding, purified MHC/competitive/fluorescence; filed as Kd, often an IC50 or EC50 that approximates it; bounds were set here for any values at or beyond the usual limits of such assays; details: source organism: Reston ebolavirus - Reston (1989)
READOUT: Kd

Record for `LIMEFNSLL` under target or system HLA-A*26:01: Kd reported as ≥ 20 µM

---

target: HLA-B*48:01; test: IEDB peptide-MHC binding, purified MHC/direct/fluorescence; filed as Kd, often an IC50 or EC50 that approximates it; bounds were set here for any values at or beyond the usual limits of such assays; details: source organism: Corynebacterium diphtheriae
READOUT: Kd

The value of Kd measured for the sequence `VERRLVKVL` turned out to be ≥ 20 µM

---

target: HLA-A*68:02; assay: IEDB peptide-MHC binding, purified MHC/competitive/fluorescence; filed as Kd, often an IC50 or EC50 that approximates it; bounds were set here for any values at or beyond the usual limits of such assays; details: source organism: Cryptosporidium parvum Iowa II
READOUT: Kd

Record for `KIFKVTGEF` under target or system HLA-A*68:02: Kd reported as ≥ 20 µM

---

molecular target: HLA-B*15:17; experiment: IEDB peptide-MHC binding, purified MHC/direct/fluorescence; filed as Kd, often an IC50 or EC50 that approximates it; bounds were set here for any values at or beyond the usual limits of such assays; conditions: source organism: Rickettsia canadensis
READOUT: pKd
Answers are plain numbers, as −log10 of the molar value.

Record for `SSEADCFTY` under target or system HLA-B*15:17: pKd reported as 7.09

---

molecular target: HLA-B*40:01; test: IEDB peptide-MHC binding, purified MHC/direct/fluorescence; filed as Kd, often an IC50 or EC50 that approximates it; bounds were set here for any values at or beyond the usual limits of such assays; details: source organism: Influenza A virus (A/swine/Korea/S190/2004(H9N2))
pKd: −log10 of the molar value.
READOUT: pKd

Record for `IPKRNRSIL` under target or system HLA-B*40:01: pKd reported as ≤ 4.70
